- System: MCF7 human breast adenocarcinoma cell line
- TEST_SUMMARY: MTT cell viability assay on MCF7
- Type: cell-based
- TEST_CONTEXT: Homo sapiens, MCF7, 24 h incubation
pIC50: −log10 of the molar value.
MEASURED_ENDPOINT: pIC50

COMPOUND | VALUE_OBSERVED
OC(Cn1ccnc1)c1ccccc1 (centres unmarked) | 3.98

[1] OC(Cn1ccnc1)c1ccc(Cl)cc1 (centres unmarked)
[2] O=C(Cn1ccnc1)c1ccccc1
Could you determine which record has the numerically smaller pIC50? Candidates: 1 and 2 Write down the label of the entry you select. 2
(2: 3.79, 1: 4.07)

----------
- System: C6 rat glial tumor cell line
- TEST_SUMMARY: MTT cell viability assay on C6
- Assay type: cell-based
- TEST_CONTEXT: Rattus norvegicus, 24 h, 24 h incubation
MEASURED_ENDPOINT: IC50 (µM)

COMPOUND | TEST_TARGET | UNIT_ANNOTATION | VALUE_OBSERVED
CCOC(Cn1ccnc1)c1ccccc1 (centres unmarked) | C6 rat glial tumor cell line | µM | 26.1
O=C(Cn1ccnc1)c1ccc(Cl)cc1 | C6 rat glial tumor cell line | µM | 10.7
OC(Cn1ccnc1)c1ccc(Cl)cc1 (centres unmarked) | C6 rat glial tumor cell line | µM | 20.1

[A] O=C(Cn1ccnc1)c1ccccc1
[B] OC(Cn1ccnc1)c1ccccc1 (centres unmarked)
Could you determine which record has the numerically smaller IC50? Candidates: A and B Write down the label of the entry you select. A
(A: 15.8 µM, B: 35.2 µM)

----------
- TEST_TARGET: hCA II (Homo sapiens, UniProt P00918)
- TEST_SUMMARY: CA esterase activity method, hCA II; also: key: +: active; -: not effect
- Format: biochemical
- TEST_CONTEXT: Table S3
MEASURED_ENDPOINT: Effect on hCA II isoenzyme activity

Please review the following examples before continuing.
COMPOUND | Effect on hCA II isoenzyme activity
O=C(Cn1ccnc1)c1ccc(Cl)cc1 | -
O=C(Cn1ccnc1)c1ccccc1 | -
COc1ccc(C(=O)Cn2ccnc2)cc1 | -
CCOC(Cn1ccnc1)c1ccccc1 (centres unmarked) | +

Shift focus to the following entry.
Reported Effect on hCA II isoenzyme activity, compound CCOC(Cn1ccnc1)c1ccc(Cl)cc1 (centres unmarked) : ____ +

Entry source: paper PMC11097166
